- target desc: M1-type muscarinic cholinergic receptor (Rattus norvegicus, UniProt P08482)
- Sequence (P08482 whole entry): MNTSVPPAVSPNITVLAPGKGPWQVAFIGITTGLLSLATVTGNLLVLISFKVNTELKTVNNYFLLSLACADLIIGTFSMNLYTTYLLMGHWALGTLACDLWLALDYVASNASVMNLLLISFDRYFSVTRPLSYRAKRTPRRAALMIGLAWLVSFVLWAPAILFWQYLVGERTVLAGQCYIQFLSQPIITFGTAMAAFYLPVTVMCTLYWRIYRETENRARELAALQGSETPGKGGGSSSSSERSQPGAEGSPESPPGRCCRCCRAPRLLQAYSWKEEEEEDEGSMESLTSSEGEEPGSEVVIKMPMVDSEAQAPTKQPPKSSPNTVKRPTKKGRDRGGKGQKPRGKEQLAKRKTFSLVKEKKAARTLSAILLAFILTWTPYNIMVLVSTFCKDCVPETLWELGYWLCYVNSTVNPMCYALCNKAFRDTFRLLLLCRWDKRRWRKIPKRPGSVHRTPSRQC
- assay text: Test for affinity for the M1-type muscarinic cholinergic receptor (displacement of [3H]pirenzepine)
- Assay type: binding
- measurement conditions: M2 IC50 (guinea-pig ileum) / M1 IC50 (rat hippocampus)
observation type: r = (M2/M1), ratio of the IC50 values (selectivity)
Give bare numbers.

For each of the items listed, what is its r = (M2/M1), ratio of the IC50 values (selectivity)?
1. CCN1CCCC1CNc1cc2oc3ccccc3c2nn1 (stereo not shown)
2. Cl.Cl.c1ccc2c(c1)sc1cc(NCCN3CCOCC3)nnc12
3. CCN(CC)CCNc1cc2c(nn1)-c1ccccc1SC2.Cl.Cl

Result:
[500, 28, 24]

Consider the following items and state reported r = (M2/M1), ratio of the IC50 values (selectivity) for each.
1. CCN(CC)CCCNc1cc2oc3ccccc3c2nn1
2. CCN(CC)CCNc1cc2oc3ccccc3c2nn1

Result:
1. 100
2. 64

Reference for the values: patent US4983603A
